This collection of values is drawn from paper PMC4006906.

- target_system: H5VN04 trimeric HA (recombinant hemagglutinin) (influenza A virus (H5VN04), UniProt Q6DQ33)
- assay_protocol: SPR
For each record, write down the corresponding koff.
One number for each entry, in s⁻¹.

Your task in this section: give koff for each listed record.
1. F10 scFv (wild type) (scFv, V domains shown) VH: QVQLVQSGAEVKKPGSSVKVSCTSSEVTFSSFAISWVRQAPGQGLEWLGGISPMFGTPNYAQKFQGRVTITADQSTRTAYMDLRSLRSEDTAVYYCARSPSYICSGGTCVFDHWGQGTLVTVSS VL: QPGLTQPPSVSKGLRQTATLTCTGNSNNVGNQGAAWLQQHQGHPPKLLSYRNNDRPSGISERFSASRSGNTASLTITGLQPEDEADYYCSTWDSSLSAVVFGGGTKLTVL
2. F10 Y98A scFv (scFv, V domains shown) VH: QVQLVQSGAEVKKPGSSVKVSCTSSEVTFSSFAISWVRQAPGQGLEWLGGISPMFGTPNYAQKFQGRVTITADQSTRTAYMDLRSLRSEDTAVYYCARSPSAICSGGTCVFDHWGQGTLVTVSS VL: QPGLTQPPSVSKGLRQTATLTCTGNSNNVGNQGAAWLQQHQGHPPKLLSYRNNDRPSGISERFSASRSGNTASLTITGLQPEDEADYYCSTWDSSLSAVVFGGGTKLTVL

1: 3.5e-05; 2: 0.097
